test_protocol: Cell viability LC50, HUVEC cells
Assay type: cell-based
experimental_setup: human, HUVEC (Human Umbilical Cord Vascular Endothelial Cells)
observation_type: CC50 at 30 min (µM)

Ac-AAAAAAWAAAAGPNGLYLKKKLLKKLLKLLGNPGLKLYKKLLKKLLLKLGNPGLLKLYKKLLKKLLKLL-OH [SGP, small globular protein] :: 7

###

test_protocol: Cell viability LC50, 293 cells
Type: cell-based
experimental_setup: human, 293 cells (human kidney cells)
observation_type: CC50 at 30 min (µM)

Ac-AAAAAAWAAAAGPNGLYLKKKLLKKLLKLLGNPGLKLYKKLLKKLLLKLGNPGLLKLYKKLLKKLLKLL-OH [SGP, small globular protein] :: 5
